# ASSAY SYSTEM: human CYP11B2 (Homo sapiens)
# Sequence (P19099 25-503): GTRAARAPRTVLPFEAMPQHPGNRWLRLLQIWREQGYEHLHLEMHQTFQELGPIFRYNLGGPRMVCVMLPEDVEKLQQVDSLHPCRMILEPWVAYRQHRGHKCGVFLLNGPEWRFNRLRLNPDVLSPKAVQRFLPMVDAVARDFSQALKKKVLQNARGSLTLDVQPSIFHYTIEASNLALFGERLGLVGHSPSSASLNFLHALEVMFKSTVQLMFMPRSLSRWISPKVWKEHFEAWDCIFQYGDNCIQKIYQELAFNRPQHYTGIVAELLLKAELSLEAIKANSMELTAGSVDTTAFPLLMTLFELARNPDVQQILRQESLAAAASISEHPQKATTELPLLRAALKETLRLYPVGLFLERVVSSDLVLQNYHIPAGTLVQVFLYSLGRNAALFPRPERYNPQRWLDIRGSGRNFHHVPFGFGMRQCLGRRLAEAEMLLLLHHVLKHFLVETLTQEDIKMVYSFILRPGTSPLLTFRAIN
# MEASUREMENT PROTOCOL: G-402 cellular enzyme assay, human CYP11B2 (aldosterone release, HTRF)
# TEST CONTEXT: G-402 cells, 1 μM Deoxycorticosterone
ENDPOINT: EC50 (nM)

Below, 5 molecules whose answers are already recorded.
MOLECULE	ENDPOINT	UNIT OF MEASURE	RESULT
O=C1CCCN1Cc1cncc(N2CCc3cc(Cl)ccc3C2=O)c1 [Example 155]	EC50	nM	132
O=C1c2ccc(Cl)cc2CCN1c1cncnc1 [Example 51]	EC50	nM	2680
CC[C@@H]1c2cc(Cl)ccc2C(=O)N1c1cncc2c1CCC[C@@H]2NS(C)(=O)=O (single isomer, unassigned) [Example 349]	EC50	nM	982
CCC1c2cc(Cl)ccc2C(=O)N1c1cncc(OC(F)F)c1 (centres unmarked) [Example 282]	EC50	nM	42.9
O=C(Nc1ccccc1)c1cncc(N2CCc3cc(Cl)ccc3C2=O)c1 [Example 46]	EC50	nM	698

I: CC(Nc1ccccc1)c1cncc(N2CCc3cc(Cl)ccc3C2=O)c1 (centres unmarked) [Example 278]
II: O=c1c2ccc(Cl)cc2ccn1-c1cccnc1 [Example 53]
**Query** Kindly identify which of I and II has the larger recorded EC50 value. Could you answer with the label of the item you picked?
**Result** II

a: CCC1c2cc(Cl)ccc2C(=O)N1c1cncc(F)c1 (single isomer, unassigned) [Example 309]
b: CS(=O)(=O)NC1CCCc2c1cncc2N1CCc2cc(Cl)ccc2C1=O (single isomer, unassigned) [Example 325]
c: CC1CN(c2cccnc2)C(=O)c2ccc(Cl)cc21 (centres unmarked) [Example 105]
d: O=C1c2ccc(Cl)cc2CN1c1cncc2c1CCCC2O (centres unmarked) [Example 117]
e: CC(C)c1nccn1Cc1cncc(N2C(=O)c3ccc(Cl)cc3CC2C)c1 (centres unmarked) [Example 87]
**Query** Rank by EC50 (largest to smallest). Returns: the labels listed in the requested order.
**Result** c, e, d, b, a
(c: 382 nM, e: 251 nM, d: 127 nM, b: 59.2 nM, a: 16 nM)

P: CC[C@H]1c2cc(Cl)ccc2C(=O)N1c1cncc2c1CC[C@@H]2NC(C)=O (single isomer, unassigned) [Example 345]
Q: CCC(=O)N[C@@H]1CCCc2c1cncc2N1C(=O)c2ccc(Cl)cc2[C@@H]1CC (single isomer, unassigned) [Example 353]
**Query** Lab notebook, comparison: P versus Q , higher EC50 goes to which? Return value: the label identifying the chosen record.
**Result** Q

P: Cc1nncn1Cc1cncc(N2CCc3cc(Cl)ccc3C2=O)c1 [Example 177]
Q: CCC1c2cc(Cl)ccc2C(=O)N1c1cncc(F)c1 (single isomer, unassigned) [Example 310]
**Query** # min-compare on EC50 between P and Q Label of pick, please.
**Result** Q
(Q: 16.5 nM, P: 412 nM)

* * *

# ASSAY SYSTEM: UniProtKB P19099
# MEASUREMENT PROTOCOL: G-402 cellular enzyme assay, human CYP11B2 (aldosterone release, HTRF)
# TEST CONTEXT: G-402 cells, 1 μM Deoxycorticosterone
ENDPOINT: EC50 (nM)

These recorded examples may help you get a feel for the data.
COMPOUND	ENDPOINT	UNIT OF MEASURE	RESULT
Cc1ccc(C(=O)NCc2cncc(N3C(=O)c4ccc(Cl)cc4C3(C)C)c2)cn1	EC50	nM	5.8
COc1ccc2c(n1)C(C)(C)N(c1cncc(F)c1)C2=O	EC50	nM	204
CCC(=O)N[C@@H]1CCCc2c1cncc2N1C(=O)c2ccc(Cl)cc2[C@H]1C (single isomer, unassigned)	EC50	nM	65.6

a: CC(=O)NC1CCCc2c1cncc2N1CCc2cc(Cl)ccc2C1=O (single isomer, unassigned) [Example 321]
b: COC[C@@H]1CCCN1Cc1cncc(N2CCc3cc(Cl)ccc3C2=O)c1
**Query** When a and b are compared, which has the higher number for EC50? Indicate your choice by writing its label.
**Result** b
(b: 141 nM, a: 55.6 nM)

* * *

# ASSAY SYSTEM: human CYP11B2 (Homo sapiens)
# MEASUREMENT PROTOCOL: G-402 cellular enzyme assay, human CYP11B2 (aldosterone release, HTRF)
# TEST CONTEXT: G-402 cells, 1 μM Deoxycorticosterone
# From the text: Herein we identified the use of the G-402 cell line as a host cell to ectopically express (transiently or stably) enzymes of the CYP11 family. […] Importantly the identified cell line G-402 expresses co-factors (adrenodoxin and adrenodoxin reductase) important for the activity of the CYP11 family and no relevant enzyme activity of the CYP11 family (in comparison to H295R cells) was detected in these cells. […]
ENDPOINT: EC50 (nM)

The following molecules have reported results that may help.
MOLECULE	ENDPOINT	RESULT
CCOc1ccc2c(n1)C(C)(C)N(c1cncc(CNc3cc[nH]n3)c1)C2=O [Example 385]	EC50	893
O=C1c2ccc(Cl)cc2CCN1c1cncc(CN2CC[C@@H](O)C2)c1 [Example 147]	EC50	36.7
O=C1c2ccc(Cl)cc2CCN1c1cncc(NCC(F)(F)F)c1 [Example 223]	EC50	116
O=C1NCCN1Cc1cncc(N2CCc3cc(Cl)ccc3C2=O)c1 [Example 158]	EC50	182

I: CC(Nc1ncco1)c1cncc(N2CCc3cc(Cl)ccc3C2=O)c1 (stereo not drawn) [Example 272]
II: CC1Cc2cc(Cl)ccc2C(=O)N1c1cncc(CO)c1 (stereo not drawn) [Example 86]
**Query** Which value of EC50 is greater, the one for I or the one for II ? Identify your selection by its label.
**Result** II
(II: 377 nM, I: 60.4 nM)

a: CCC1c2ccc(Cl)cc2C(=O)N1c1cncc(F)c1 (single isomer, unassigned) [Example 308]
b: CCC(=O)NCc1cncc(N2C(=O)c3ccc(Cl)cc3C23CC3)c1 [Example 396]
c: CC(O)(c1cncc(N2CCc3cc(Cl)ccc3C2=O)c1)c1ccc(F)c(F)c1 (stereo not drawn) [Example 36]
**Query** Arrange the 3 entries by EC50 so the values rise. The reply should contain the labels ordered as requested.
**Result** c, b, a

a: O=C1c2ccc(Cl)cc2CCN1c1cnccc1Cl [Example 6]
b: CC1Cc2cc(Cl)ccc2C(=O)N1c1cccnc1 (stereo not drawn) [Example 88]
**Query** Could you determine which record has the numerically smaller EC50? Candidates: a and b To answer, give the label that identifies your chosen option.
**Result** a

P: O=C1c2ccc(Cl)cc2CCN1c1cncc(Cc2ccccc2C(F)(F)F)c1 [Example 213]
Q: Cc1cnn(Cc2cncc(N3CCc4cc(Cl)ccc4C3=O)c2)c1 [Example 187]
R: O=C1c2ccc(Cl)cc2CCN1c1cncc(N2CC[C@@H](O)C2)c1 [Example 137]
S: CC(=O)NC1CCCc2c1cncc2N1Cc2cc(Cl)ccc2C1=O (single isomer, unassigned) [Example 322]
**Query** // ranking: key=EC50, reverse=True Reply format: the labels, ordered as requested.
**Result** S, Q, P, R
(S: 5140 nM, Q: 137 nM, P: 39.1 nM, R: 10.1 nM)

* * *

# ASSAY SYSTEM: human CYP11B1 (Homo sapiens)
# Sequence (P15538 25-503): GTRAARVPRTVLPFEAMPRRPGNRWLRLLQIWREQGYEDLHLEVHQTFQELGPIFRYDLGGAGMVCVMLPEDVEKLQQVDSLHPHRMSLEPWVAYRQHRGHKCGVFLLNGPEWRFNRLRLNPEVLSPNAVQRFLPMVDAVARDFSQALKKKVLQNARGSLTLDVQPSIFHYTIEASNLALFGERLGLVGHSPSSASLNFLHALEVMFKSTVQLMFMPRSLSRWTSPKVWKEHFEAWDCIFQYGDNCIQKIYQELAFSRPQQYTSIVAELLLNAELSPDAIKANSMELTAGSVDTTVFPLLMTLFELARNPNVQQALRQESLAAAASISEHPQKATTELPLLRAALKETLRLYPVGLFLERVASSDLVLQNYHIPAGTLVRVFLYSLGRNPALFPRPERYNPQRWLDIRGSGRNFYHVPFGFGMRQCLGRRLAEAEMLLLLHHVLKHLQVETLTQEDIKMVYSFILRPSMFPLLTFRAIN
# MEASUREMENT PROTOCOL: G-402 cellular enzyme assay, human CYP11B1 (cortisol release, HTRF)
# TEST CONTEXT: G-402 cells, 1 μM Deoxycortisol
pEC50: −log10 of the molar value.
ENDPOINT: pEC50

Consider the following illustrative entries.
COMPOUND	pEC50
COc1ccc2c(n1)C(C)(C)N(c1cncc(-c3ccnn3C)c1)C2=O	6.24
CC1(C)c2cc(C#N)ccc2C(=O)N1c1cncc(CNS(C)(=O)=O)c1	5.65
O=c1c2ccc(Cl)cc2ccn1-c1cccnc1	4.97
O=C1c2ccc(Cl)cc2CCN1c1cncc(CN2CCN(CCO)CC2)c1	7.22

A: CC[C@H]1c2cc(Cl)ccc2C(=O)N1c1cncc2c1CCC[C@@H]2NC(C)=O (single isomer, unassigned)
B: O=C1c2ccc(Cl)cc2CCN1c1cncc2c([N+](=O)[O-])cccc12
**Query** // pick min by pEC50: A , B Please reply using the label of the selected record.
**Result** B

* * *

# ASSAY SYSTEM: human CYP11B2 (Homo sapiens)
# MEASUREMENT PROTOCOL: G-402 cellular enzyme assay, human CYP11B2 (aldosterone release, HTRF)
# TEST CONTEXT: G-402 cells, 1 μM Deoxycorticosterone
# Source text: Herein we identified the use of the G-402 cell line as a host cell to ectopically express (transiently or stably) enzymes of the CYP11 family. […] Importantly the identified cell line G-402 expresses co-factors (adrenodoxin and adrenodoxin reductase) important for the activity of the CYP11 family and no relevant enzyme activity of the CYP11 family (in comparison to H295R cells) was detected in these cells. […]
ENDPOINT: EC50 (nM)

Below, each entry is followed by its recorded EC50 result.
COMPOUND	RESULT
O=C1c2ccc(Cl)cc2CCN1c1cncc(C(O)c2ccc(F)c(F)c2)c1 (centres unmarked)	50.2
COc1ccc2c(c1)CCN(c1cccnc1)C2=O	2060
Cn1ncc2c(N3Cc4cc(Cl)ccc4C3=O)cncc21	132
O=C1c2ccc(Cl)cc2CCN1c1cnccc1CO	297
Cn1nccc1-c1cncc(N2CCc3cc(Cl)ccc3C2=O)c1	104
O=C1c2cc(F)c(Cl)cc2CCN1c1cccnc1	104

A: C[C@@H]1Cc2cc(Cl)ccc2C(=O)N1c1cccnc1
B: O=C1c2ccc(Cl)cc2C2(CC2)N1c1cnccc1Cl
C: CC1(C)c2cc(Cl)ccc2C(=O)N1c1cccnc1
D: CCC1c2cc(Cl)ccc2C(=O)N1c1cncc(OC)c1 (centres unmarked)
E: Cn1cc(-c2cncc(N3CCc4cc(Cl)ccc4C3=O)c2)cn1
**Query** Descending sort on EC50 required. To answer, write out the labels according to the requested order.
**Result** A, C, D, E, B
(A: 395 nM, C: 108 nM, D: 54.5 nM, E: 10.5 nM, B: 5.4 nM)

a: CC(=O)NC1CCCc2c1cncc2N1C(=O)c2ccc(Cl)cc2C1(C)C (single isomer, unassigned) [Example 466]
b: O=C1c2ccc(Cl)cc2CCN1c1cnccc1C(F)(F)F
c: CC1(C)c2cc(Cl)ccc2C(=O)N1c1cncc(CNC(=O)c2cccnc2)c1
d: CC(O)(c1ccccc1)c1cncc(N2CCc3cc(Cl)ccc3C2=O)c1 (centres unmarked)
**Query** Order the records by EC50, with each subsequent value no larger than the one before. Please express your ranking as an ordered list of the labels.
**Result** a, b, d, c

a: Nc1cncc(N2CCc3cc(Cl)ccc3C2=O)c1
b: O=C1c2ccc(Cl)cc2CCN1c1cncc(CN2CCC[C@H]2CO)c1
c: O=C1c2ccc(Cl)cc2CCN1c1cncc(O)c1
d: O=C1c2ccc(Cl)cc2C2(CC2)N1c1cncc(CNc2cc[nH]n2)c1
**Query** Rank entries according to their EC50, from the largest number down. Answer with the labels in sequence, matching the requested order.
**Result** a, c, b, d
(a: 597 nM, c: 272 nM, b: 126 nM, d: 6 nM)

A: O=C1c2ccc(Cl)cc2CCN1c1cncc(-c2ccc(Cl)c(Cl)c2)c1
B: Cc1ccnn1Cc1cncc(N2CCc3cc(Cl)ccc3C2=O)c1
C: CC1(C)CN(c2cncc(F)c2)C(=O)c2ccc(Cl)cc21
D: Cn1ccnc1C(=O)NCc1cncc(N2C(=O)c3ccc(Cl)cc3C2(C)C)c1
E: O=C(Cc1cncc(N2CCc3cc(Cl)ccc3C2=O)c1)NCCO
**Query** Thanks in advance: please rank these 5 entries by EC50, highest to lowest. Reply format: the labels, ordered as requested.
**Result** C, E, A, B, D

P: O=C1c2ccc(Cl)cc2CCN1c1cncc(Br)c1
Q: CS(=O)(=O)c1ccc(Cc2cncc(N3CCc4cc(Cl)ccc4C3=O)c2)cc1
R: CC(C)(Nc1cncc(N2CCc3cc(Cl)ccc3C2=O)c1)C(=O)O
S: COC(c1cncc(N2CCc3cc(Cl)ccc3C2=O)c1)C1CC1 (centres unmarked)
T: Cc1cnn(C)c1-c1cncc(N2CCc3cc(Cl)ccc3C2=O)c1
**Query** Sort (5 compounds) by EC50: min first. Use the labels to give the ranking in the order requested.
**Result** Q, T, S, P, R

1: O=C1c2ccc(Cl)cc2CCN1c1cncc(C(O)C(F)(F)F)c1 (centres unmarked)
2: COc1ccc2c(n1)C(C)(C)N(c1cncc(CNc3cc[nH]n3)c1)C2=O
**Query** Thinking about recorded EC50 values, which is higher, 1 or 2 ? Selection: enter the item's label.
**Result** 1

I: CCS(=O)(=O)N1CC(Oc2cncc(N3C(=O)c4ccc(Cl)cc4C3(C)C)c2)C1
II: CS(=O)(=O)NCc1cncc(N2C(=O)c3ccc(F)cc3C23CC3)c1
**Query** Which item exceeds the other in EC50, I or II ? Mark your answer with the label of the selected entry.
**Result** II
(II: 298 nM, I: 5.1 nM)

I: O=C1c2ccc(Cl)cc2CCN1c1cncc(CN2CCC(F)(F)C2)c1
II: CS(=O)(=O)Nc1cncc(N2CCc3cc(Cl)ccc3C2=O)c1
III: N#Cc1cncc(N2CCc3cc(Cl)ccc3C2=O)c1
**Query** Exam item: list the entries in increasing order of EC50. Your task in answering is to list the labels in the requested order.
**Result** I, III, II
(I: 5.2 nM, III: 442 nM, II: 1080 nM)

I: O=C1c2ccc(Cl)cc2CCN1c1cncc(N2C(=O)CC[C@H]2CO)c1
II: CC1(C)c2cc(Cl)ccc2C(=O)N1c1cncc(OC(F)F)c1
**Query** // which entry reports the smaller EC50, I or II ? Respond with the label that goes with your answer.
**Result** II
